target_desc: CYP2D6 (Homo sapiens)
Sequence (P10635 whole entry): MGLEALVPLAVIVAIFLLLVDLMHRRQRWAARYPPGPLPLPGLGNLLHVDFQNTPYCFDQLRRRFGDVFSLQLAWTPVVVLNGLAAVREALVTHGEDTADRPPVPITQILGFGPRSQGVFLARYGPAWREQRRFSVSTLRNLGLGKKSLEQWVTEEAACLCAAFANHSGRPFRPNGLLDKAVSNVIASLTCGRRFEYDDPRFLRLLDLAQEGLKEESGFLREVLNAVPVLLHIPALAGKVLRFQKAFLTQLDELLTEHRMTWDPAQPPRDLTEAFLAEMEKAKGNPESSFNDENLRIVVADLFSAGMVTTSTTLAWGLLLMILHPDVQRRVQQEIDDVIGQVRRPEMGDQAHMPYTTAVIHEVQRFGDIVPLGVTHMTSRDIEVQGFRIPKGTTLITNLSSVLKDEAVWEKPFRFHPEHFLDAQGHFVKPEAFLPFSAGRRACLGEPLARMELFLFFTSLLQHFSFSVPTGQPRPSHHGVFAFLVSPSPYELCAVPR
assay_details: Inhibition of CYP2D6 (unknown origin) using bufuralol as substrate at 10 uM by cocktail based assay relative to control
Assay type: ADME
cond: probe bufuralol

[
  {
    "smiles_str": "c1cc(-c2ccc3nc(N4CCOCC4)ncc3c2)nc(Nc2cnn(C3CCNCC3)c2)n1",
    "target_desc": "CYP2D6 (Homo sapiens)",
    "inhibition at 10 µM": "< 10%"
  },
  {
    "smiles_str": "CC(C)NC(=O)c1ccc(Nc2nccc(-c3ccc4nc(N5CCCC5)ncc4c3)n2)cc1",
    "target_desc": "CYP2D6 (Homo sapiens)",
    "inhibition at 10 µM": "3%"
  },
  {
    "smiles_str": "c1cc(-c2ccc3nc(N4CCOCC4)ncc3c2)nc(Nc2ccc(N3CCNCC3)cc2)n1",
    "target_desc": "CYP2D6 (Homo sapiens)",
    "inhibition at 10 µM": "< 10%"
  },
  {
    "smiles_str": "CC(C)NC(=O)c1ccc(Nc2ncc(F)c(-c3ccc4nc(N5CCCC5)ncc4c3)n2)cc1",
    "target_desc": "CYP2D6 (Homo sapiens)",
    "inhibition at 10 µM": "< 10%"
  },
  {
    "smiles_str": "c1cc(-c2ccc3nc(N4CCCC4)ncc3c2)nc(Nc2ccc(N3CCOCC3)cc2)n1",
    "target_desc": "CYP2D6 (Homo sapiens)",
    "inhibition at 10 µM": "< 10%"
  },
  {
    "smiles_str": "OCCN1CCC(n2cc(Nc3ncc(F)c(-c4ccc5nc(N6CCOCC6)ncc5c4)n3)cn2)CC1",
    "target_desc": "CYP2D6 (Homo sapiens)",
    "inhibition at 10 µM": "< 10%"
  },
  {
    "smiles_str": "c1cc(-c2ccc3nc(N4CCCC4)ncc3c2)nc(Nc2cnn(C3CCNCC3)c2)n1",
    "target_desc": "CYP2D6 (Homo sapiens)",
    "inhibition at 10 µM": "5%"
  },
  {
    "smiles_str": "OCCN1CCC(c2ccc(Nc3nccc(-c4ccc5nc(N6C[C@@H]7C[C@H]6CO7)ncc5c4)n3)cn2)CC1",
    "target_desc": "CYP2D6 (Homo sapiens)",
    "inhibition at 10 µM": "< 10%"
  }
]
